Please go through the items and note down their Drug uptake.
System: Femur
Assay: Biodistribution in Sprague-Dawley rat femur at 15 uCi, iv after 120 mins
Type: ADME, organism-based
Conditions: in vivo, 2 h
Quick reminder: number only, in % ID/g, skip the unit.

stdin: Would you mind telling me what Drug uptake value was observed for CCC(CF)Oc1ccc(COc2cnn(C(C)(C)C)c(=O)c2Cl)cc1 (configuration not stated) ?
stdout: 3

stdin: Would you mind telling me what Drug uptake value was observed for CC(F)COc1ccc(COc2cnn(C(C)(C)C)c(=O)c2Cl)cc1 (configuration not stated) ?
stdout: 3.91

stdin: Would you mind telling me what Drug uptake value was observed for `CC(C)(C)n1ncc(OCc2ccc(CCCCF)cc2)c(Cl)c1=O` ?
stdout: 1.16

stdin: Would you mind telling me what Drug uptake value was observed for CC(F)CCc1ccc(COc2cnn(C(C)(C)C)c(=O)c2Cl)cc1 (configuration not stated) ?
stdout: 2.38

stdin: Would you mind telling me what Drug uptake value was observed for `CC(C)(C)n1ncc(OCc2ccc(OCCCF)cc2)c(Cl)c1=O` ?
stdout: 0.76

stdin: Would you mind telling me what Drug uptake value was observed for CC(C)(C)n1ncc(OCc2ccc(COCCF)cc2)c(Cl)c1=O [FLURPIRIDAZ] ?
stdout: 0.75

stdin: Would you mind telling me what Drug uptake value was observed for `[2H]C([2H])(Oc1cnn(C(C)(C)C)c(=O)c1Cl)c1ccc(COC([2H])([2H])C([2H])([2H])F)cc1` ?
stdout: 0.78

Recorded values, source ChEMBL document CHEMBL1150282.
